Experimental target: UniProt A0A0B5JFF1
Sequence (A0A0B5JFF1 whole entry): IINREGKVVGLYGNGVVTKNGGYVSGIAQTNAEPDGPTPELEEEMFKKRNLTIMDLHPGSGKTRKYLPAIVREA
Test details: Functional biochemical assay to identify treatments for viral infectious disease that targets Dengue virus type 3 NS2B-NS3 protease. Utilizing a direct enzyme activity measurement method, reading the fluorescence intensity is used to characterize the relative potency of inhibitors as IC50.
Measured endpoint: IC50 (µM)
Field format: number, assumed µM, no unit text.

Example entries and their recorded answers appear below.
# Smiles repr, Numeric value
measured = [
    ("Cc1c(C(=O)Nc2cc(CCCN)ccn2)cc(C2CC2)n1C", 34.5),
    ("O=C(Nc1ccc2c(c1)CNC2)c1cc(F)cc2[nH]c(-c3ccccc3)nc12", 3.57),
    ("O=C(Nc1cc(Cl)cc(C(=O)Nc2cccc([C@H]3C[C@H]3C(=O)O)c2)c1)OCc1ccccc1", 22.6),
]

Incoming: Complete the entry with IC50 for "Clc1cc(CNc2ccc3c(c2)CNC3)c2cn[nH]c2c1"
Outgoing: 42.2

Incoming: Provide measured IC50 value, entry: "O=C(Nc1ccc2c(c1)CNC2)c1cc(Br)cc2[nH]c(-c3ccccc3)nc12"
Outgoing: 1.47

Incoming: Specify reported IC50 for the compound shown: "CC(C)NC(=O)[C@H](Nc1ccc2c(c1)CNC2)c1cc(Cl)cc2[nH]ncc12"
Outgoing: 26.2

Incoming: # return recorded IC50 for entry "Clc1ccc2[nH]cc(Cc3ccc(-c4nn[nH]n4)cc3)c2c1"
Outgoing: 44.1

Incoming: Give IC50 for "O=C(Nc1cc(Cl)cc(-c2ccc3[nH]c(C(=O)O)cc3c2)c1)OCc1ccccc1"
Outgoing: 5

Incoming: Identify measured IC50 associated with "Cc1ccc(NC(=O)c2cc(Cl)cc(NC(=O)OCc3ccccc3)c2)cc1CN"
Outgoing: 57.7

Incoming: Input "O=C(Nc1cc2c(cc1Br)CNC2)c1cc(F)cc2[nH]ncc12" , output reported IC50.
Outgoing: 21.8

Incoming: Please report IC50 for the following compound: "O=C(Nc1ccc2c(c1)CNC2)c1ccc2[nH]cc(C3CCNCC3)c2c1"
Outgoing: 29.2

Incoming: Name the recorded IC50 of the compound listed here: "O=C(Nc1cc(Cl)cc(C(=O)Nc2cccc(-n3nn[nH]c3=O)c2)c1)OCc1ccccc1"
Outgoing: 10.5

Incoming: Return reported IC50. Input compound: "Clc1cc([C@@H]2C[C@H]2c2cccc(C3CCNCC3)c2)c2cn[nH]c2c1"
Outgoing: 6.45

Incoming: Find the measured IC50 of "O=C(Nc1ccc2c(c1)CNC2)c1cc(Cl)cc(C(F)(F)F)n1" and report it.
Outgoing: 10.4

Incoming: Determine from records and report IC50 for "O=C(Nc1cc(Cl)cc(C(=O)Nc2ccc3c(c2)CNC3)c1)OCc1ccccc1"
Outgoing: 72.5

Incoming: State its IC50 for this compound: "Cn1cc(CNC(=O)[C@H](Nc2ccc3c(c2)CNC3)c2cc(Cl)cc(C3CC3)c2)cn1"
Outgoing: 81.8

Incoming: Write down IC50 measured for item "C=CC[C@H]1NCc2cc(NC(=O)c3cc(F)cc4[nH]ncc34)ccc21"
Outgoing: 32.3

---

Quick list: pIC50 per entry.
Experimental target: NS3 protease (dengue virus type 3)
Sequence (A0A0B5JFF1 whole entry): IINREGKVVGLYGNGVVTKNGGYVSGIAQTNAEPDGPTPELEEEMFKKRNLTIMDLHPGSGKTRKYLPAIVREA
Test details: Functional biochemical assay to identify treatments for viral infectious disease that targets Dengue virus type 3 NS2B-NS3 protease. Utilizing a direct enzyme activity measurement method, reading the fluorescence intensity is used to characterize the relative potency of inhibitors as IC50.
// scale note: pIC50 = -log10(conc_M); give the bare number

Some entries whose results are on file:
# Smiles repr, Experimental target, pIC50
rows = [
    ("Cn1cc(CCc2nc3c(C(=O)Nc4ccc5c(c4)CNC5)cc(Cl)cc3[nH]2)cn1", "NS3 protease (dengue virus type 3)", 4.63),
    ("C=CC[C@H](Nc1cc(Cl)cc(NC(=O)OCc2ccccc2)c1)c1cccc(-c2nn[nH]n2)c1", "NS3 protease (dengue virus type 3)", 5.19),
    ("NCc1cccc([C@H]2C[C@@H]2c2cc(Cl)cc(NC(=O)OCc3ccccc3)c2)c1", "NS3 protease (dengue virus type 3)", 5.11),
    ("CNC(=O)[C@H](Nc1cc(Cl)cc(NC(=O)OCc2ccccc2)c1)c1cccc(-c2nn[nH]n2)c1", "NS3 protease (dengue virus type 3)", 4.39),
    ("NCc1ccc(-c2csc3cc(C(=O)Nc4ccc5c(c4)CNC5)ccc23)cc1", "NS3 protease (dengue virus type 3)", 4.50),
]

Incoming: Name the value of pIC50 reported for "O=C(Nc1cc(Br)c2c(c1)CNC2)c1cc(F)cc2[nH]ncc12" when tested on NS3 protease (dengue virus type 3).
Outgoing: 4.82

Incoming: Look up and report measured pIC50 (NS3 protease (dengue virus type 3)) for the following molecule: "O=C(Nc1ccc2c(c1)CNC2)c1cc(F)cc2[nH]c(-c3ccccc3F)nc12"
Outgoing: 5.46

Incoming: // fetch pIC50; item: "O=C(Nc1ccc2c(c1)CNC2)c1cccc(-c2cnco2)c1" ; system: NS3 protease (dengue virus type 3)
Outgoing: 4.67

---

Experimental target: NS3 protease (dengue virus type 3, UniProt A0A0B5JFF1)
Sequence (A0A0B5JFF1 whole entry): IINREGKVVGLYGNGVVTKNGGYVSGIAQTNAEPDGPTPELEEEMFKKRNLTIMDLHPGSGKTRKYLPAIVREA
Test details: Functional biochemical assay to identify treatments for viral infectious disease that targets Dengue virus type 3 NS2B-NS3 protease. Utilizing a direct enzyme activity measurement method, reading the fluorescence intensity is used to characterize the relative potency of inhibitors as IC50.
Measured endpoint: pIC50
Convention used: pIC50 is expressed as -log10 of the molar concentration.

# Smiles repr, pIC50
records = [
    ("O=C(Nc1ccc2c(c1)CNC2)c1cccc2c(C3CNC3)n[nH]c12", 5.03),
    ("N#Cc1cccc(-c2nc3c(C(=O)Nc4ccc5c(c4)CNC5)cc(F)cc3[nH]2)c1", 5.64),
    ("CC(C)c1nnc(-c2nc3c(C(=O)Nc4ccc5c(c4)CNC5)cc(F)cc3[nH]2)s1", 4.97),
]

Incoming: For the compound "O=C(Nc1ccc2c(c1)CNC2)c1cc(Cl)cc2ccncc12" , give its measured pIC50 value.
Outgoing: 4.16

Incoming: Give the reported pIC50 for this compound. "OCC#C[C@H](Nc1ccc2c(c1)CNC2)c1cc(Cl)cc2[nH]ncc12"
Outgoing: 4.58

Incoming: Recall and state the measured pIC50 for "NCc1csc2cc(C(=O)Nc3ccc4c(c3)CNC4)ccc12" .
Outgoing: 5.04

Incoming: Hello, please tell me recorded pIC50 for this one: "O=C(Nc1cc(Cl)cc([C@H]2CN(Cc3ccccc3)C[C@@H]2c2cccc(-c3nn[nH]n3)c2)c1)OCc1ccccc1"
Outgoing: 5.22

Incoming: State its pIC50 for this compound: "Cc1cccc(-c2nc3c(C(=O)Nc4ccc5c(c4)CNC5)cc(F)cc3[nH]2)c1"
Outgoing: 5.21

Incoming: // Input: "O=C(NC1CCOCC1)[C@H](Nc1ccc2c(c1)CNC2)c1cc(Cl)cc2[nH]ncc12" . Output its pIC50 only.
Outgoing: 4.40

Incoming: Give reported pIC50 value for "CCc1cc(C(=O)Nc2cccc(-n3nn[nH]c3=O)c2)sc1-c1ccc(Cl)cc1"
Outgoing: 4.92

Incoming: Could you please provide reported pIC50 for "C=CC[C@H]1NCc2cc(NC(=O)c3cc(Cl)cc4[nH]ncc34)ccc21" ? Thanks!
Outgoing: 4.17

---

Experimental target: NS3 protease (dengue virus type 3)
Test details: Functional biochemical assay to identify treatments for viral infectious disease that targets Dengue virus type 3 NS2B-NS3 protease. Utilizing a direct enzyme activity measurement method, reading the fluorescence intensity is used to characterize the relative potency of inhibitors as IC50.
Measured endpoint: pIC50
Units for pIC50: none; it is -log10 of a concentration expressed in mol/L.

Example entries begin here.
# Smiles repr, Experimental target, pIC50
measured = [
    ("O=C(Nc1ccc2c(c1)CNC2)c1cc(Cl)cc2nn(-c3ccccc3)nc12", "NS3 protease (dengue virus type 3)", 5.33),
    ("O=C(Nc1ccc2c(c1)CNCC2)c1cc(Cl)cc2[nH]ncc12", "NS3 protease (dengue virus type 3)", 4.03),
    ("O=C(Nc1cc(Cl)cc(C(=O)Nc2ccc3c(c2)CCNC3)c1)OCc1ccccc1", "NS3 protease (dengue virus type 3)", 4.61),
    ("N#C[C@H](Nc1cccc(-c2nn[nH]n2)c1)c1cc(Cl)cc(NC(=O)OCc2ccccc2)c1", "NS3 protease (dengue virus type 3)", 5.02),
    ("CN1Cc2ccc(NC(=O)c3cc(Cl)cc4[nH]ncc34)cc2C1", "NS3 protease (dengue virus type 3)", 4.03),
    ("O=C(Nc1ccc2c(c1)CNC2)c1cccc2[nH]c(=O)[nH]c12", "NS3 protease (dengue virus type 3)", 4.39),
]

Incoming: Please report the measured pIC50 for "N#Cc1ccc(-c2nc3c(C(=O)Nc4ccc5c(c4)CNC5)cc(F)cc3[nH]2)cc1" tested on NS3 protease (dengue virus type 3).
Outgoing: 5.77

Incoming: Look up NS3 protease (dengue virus type 3) data: pIC50 of "C=CC[C@H]1NCc2cc(N[C@H](C(=O)NC(C)C)c3cc(Cl)cc4[nH]ncc34)ccc21" , then report it.
Outgoing: 4.26

Incoming: Report pIC50 on NS3 protease (dengue virus type 3) for this entry: "O=C(Nc1ccc2c(c1)CNC2)c1cc(Cl)cc2cc[nH]c12"
Outgoing: 4.06
